Tested on: Streptococcus sp.
Experiment: in vitro antibacterial evaluation, MIC by broth dilution
Format: cell-based
Settings: Streptococcus pyogenes (GC 4563); broth dilution, 18 hours at 35° C.
Measured Attribute: MIC Streptococcus pyogenes (GC 4563) (µg/mL)
Field format: number, assumed µg/mL, no unit text.

For COc1cccc(C2OC3C(OC4C(CO)OC(Oc5ccc(CC6NC(=O)C(C(C)c7ccccc7)NC(=O)CNC(=O)C(CO)NC(=O)C(C(O)C7CNC(=N)N7C7OC(CO)C(O)C(O)C7O)NC(=O)C(C(O)C7CNC(=N)N7)NC6=O)cc5)C(O)C4O)OC(CO)C(O)C3O2)c1 (single isomer, unassigned) [Example 137b] the compound record lists MIC Streptococcus pyogenes (GC 4563) as 4

Where these numbers come from: patent US6914045B2
